Assay: Toxicity in Zebrafish assessed as mortality at 3.125 ug/ml relative to control
Design: species or system Danio rerio
Details: in vivo, at 3.125 µg/mL
quantity: mortality at 3.125 ug/ml (%)
Number in %, nothing else.

// returns reported mortality at 3.125 ug/ml for input `CCN(C)C(=O)Oc1ccc(/C=C/C(=O)N2CCc3ccccc3C2)cc1OC` 0

* * *

Assay: Toxicity in Zebrafish assessed as mortality at 100 ug/ml relative to control
Design: species or system Danio rerio
Settings: in vivo, at 100 µg/mL
quantity: mortality at 100 ug/ml (%)
Only the number, expressed in %, is required.

Field request: mortality at 100 ug/ml | item: `CCN(C)C(=O)Oc1ccc(/C=C/C(=O)N2CCc3ccccc3C2)cc1OC` 100
